- Tested on: SGC-7901
- Assay Protocol: Cytotoxicity against Homo sapiens (human) SGC7901 cells after 72 hr by MTT assay
- Assay type: functional, cell-based
- Condition Label: Homo sapiens, SGC-7901, 72 h; read-out: IC50
# log10 of IC50 per entry
Please keep in mind that the values are log10 of IC50 expressed in µM.

Requested field: log10 of IC50. Item: "COc1ccc(C(=O)/C=C/c2ccccc2Br)cc1OC"
1.33

***
Requested field: log10 of IC50. Item: "COc1ccc(/C=C/C(=O)c2ccccc2O)c(Cl)c1"
1.79

Requested field: log10 of IC50. Item: "COc1ccc(C(=O)/C=C/c2cccc(OC)c2OC)cc1"
1.12
